Source listed as patent US20230348852A1.

System: B2M
experiment: sgRNA screening for B2M knockout in LSCs (nucleofection, FACS)
Assay type: cell-based, human
condition-info: Cas9 protein SEQ ID NO: 106, LSCs at passage 3, FACS after around 3 days
property-name: B2M knockout efficiency in LSCs after nucleofection (%)
Express it in %; write the number only.

8-HEYJA000004: gRNA targeting human B2M; targeting domain SEQ ID NO: 115; sgRNA SEQ ID NO: 166 (nucleic acid, listed as RNA, chemistry not given here) guide: ACUCACGCUGGAUAGCCUCCGUUUUAGAGCUAGAAAUAGCAAGUUAAAAUAAGGCUAGUCCGUUAUCAACUUGAAAAAGUGGCACCGAGUCGGUGCUUUU; 22

Reported B2M knockout efficiency in LSCs after nucleofection, molecule 11-HEYJA000008: gRNA targeting human B2M; targeting domain SEQ ID NO: 118; sgRNA SEQ ID NO: 169 (nucleic acid, listed as RNA, chemistry not given here) guide: CCACCUCUUGAUGGGGCUAGGUUUUAGAGCUAGAAAUAGCAAGUUAAAAUAAGGCUAGUCCGUUAUCAACUUGAAAAAGUGGCACCGAGUCGGUGCUUUU : ____
1

Reported B2M knockout efficiency in LSCs after nucleofection, molecule 7-HEYJA000003: gRNA targeting human B2M; targeting domain SEQ ID NO: 114; sgRNA SEQ ID NO: 165 (nucleic acid, listed as RNA, chemistry not given here) guide: CUCGCGCUACUCUCUCUUUCGUUUUAGAGCUAGAAAUAGCAAGUUAAAAUAAGGCUAGUCCGUUAUCAACUUGAAAAAGUGGCACCGAGUCGGUGCUUUU : ____
8

Reported B2M knockout efficiency in LSCs after nucleofection, molecule CR000453: gRNA targeting human B2M; targeting domain SEQ ID NO: 137; sgRNA SEQ ID NO: 174 (nucleic acid, listed as RNA, chemistry not given here) guide: CACAGCCCAAGAUAGUUAAGGUUUUAGAGCUAGAAAUAGCAAGUUAAAAUAAGGCUAGUCCGUUAUCAACUUGAAAAAGUGGCACCGAGUCGGUGCUUUU : ____
5

Reported B2M knockout efficiency in LSCs after nucleofection, molecule 10-HEYJA000007: gRNA targeting human B2M; targeting domain SEQ ID NO: 117; sgRNA SEQ ID NO: 168 (nucleic acid, listed as RNA, chemistry not given here) guide: AGUCACAUGGUUCACACGGCGUUUUAGAGCUAGAAAUAGCAAGUUAAAAUAAGGCUAGUCCGUUAUCAACUUGAAAAAGUGGCACCGAGUCGGUGCUUUU : ____
1

Reported B2M knockout efficiency in LSCs after nucleofection, molecule CR006979: gRNA targeting human B2M; targeting domain SEQ ID NO: 140; sgRNA SEQ ID NO: 177 (nucleic acid, listed as RNA, chemistry not given here) guide: UCCUGAAUUGCUAUGUGUCUGUUUUAGAGCUAGAAAUAGCAAGUUAAAAUAAGGCUAGUCCGUUAUCAACUUGAAAAAGUGGCACCGAGUCGGUGCUUUU : ____
2
